Measured values drawn from patent US11001563B2 for this set.

- Target of assay: VAP-1/SSAO (Homo sapiens (Human), UniProt Q16853)
- Sequence (Q16853 whole entry): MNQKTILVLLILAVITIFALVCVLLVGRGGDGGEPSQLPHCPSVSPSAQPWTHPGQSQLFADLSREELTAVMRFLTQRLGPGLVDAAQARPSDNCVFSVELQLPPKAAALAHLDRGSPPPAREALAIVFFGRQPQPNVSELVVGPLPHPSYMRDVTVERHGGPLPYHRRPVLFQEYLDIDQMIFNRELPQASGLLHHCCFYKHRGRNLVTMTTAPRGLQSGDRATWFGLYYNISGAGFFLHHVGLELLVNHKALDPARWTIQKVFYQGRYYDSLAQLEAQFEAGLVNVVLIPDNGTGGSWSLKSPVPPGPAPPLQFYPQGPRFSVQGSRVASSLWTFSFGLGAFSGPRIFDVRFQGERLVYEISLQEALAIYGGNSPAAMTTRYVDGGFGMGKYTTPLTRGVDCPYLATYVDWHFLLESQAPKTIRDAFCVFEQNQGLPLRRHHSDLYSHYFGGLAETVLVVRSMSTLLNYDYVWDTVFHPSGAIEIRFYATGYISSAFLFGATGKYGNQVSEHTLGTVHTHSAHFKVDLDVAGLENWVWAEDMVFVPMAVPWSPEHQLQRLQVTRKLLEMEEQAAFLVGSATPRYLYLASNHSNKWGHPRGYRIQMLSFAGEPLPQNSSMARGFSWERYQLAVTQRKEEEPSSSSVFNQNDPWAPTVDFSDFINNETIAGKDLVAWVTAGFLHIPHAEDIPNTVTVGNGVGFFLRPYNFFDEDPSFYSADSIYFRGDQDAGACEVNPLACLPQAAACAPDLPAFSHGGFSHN
- Assay explanation: Human VAP-1 enzyme activity assay (Amplex Red Monoamine Oxidase kit)
- Assay type: biochemical
- Settings: 10 nM VAP-1 enzyme, 30 min preincubation, benzylamine substrate; read-out: Human Recombinant VAP-1/SSAO Enzyme Inhibitory Activity IC50
Measured pIC50, listed per entry.
For clarity, pIC50 is expressed as the negative log10 of concentration in mol/L.

Some compounds with recorded pIC50:
# Compound, pIC50
data = [
    ("Cc1nc(-c2ccc(OC/C(=C/F)CN)cc2)sc1C [WX111]", 9.40),
    ("NC/C(=C\\F)COc1ccc(-c2nc(N3CCOCC3)n[nH]2)cc1 [WX073]", 9.05),
    ("Cn1nc(CC(F)(F)F)nc1-c1ccc(OC/C(=C/F)CN)cc1 [WX104]", 9.52),
    ("CC(C)(C)c1noc(-c2ccc(OC/C(=C/F)CN)cc2)n1 [WX019]", 8.70),
]

Identify measured pIC50 corresponding to NC/C(=C\F)COc1ccc(-c2nc(C3CCCC3)n[nH]2)cc1 [WX064]
9.10

Identify measured pIC50 corresponding to CS(=O)(=O)n1nc(C2CC2)nc1-c1ccc(OC/C(=C/F)CN)cc1 [WX062]
8.92

Identify measured pIC50 corresponding to NC/C(=C\F)COc1ccc(-c2noc(C3CC3)n2)cc1 [WX044]
9.30

Identify measured pIC50 corresponding to Cn1nc(-c2ccc(OC/C(=C/F)CN)cc2)nc1N1CCOCC1 [WX122]
9.00

Identify measured pIC50 corresponding to Cc1csc(-c2ccc(OC/C(=C/F)CN)cc2)n1 [WX022]
9.52

Identify measured pIC50 corresponding to CCn1nc(C2(F)CC2)nc1-c1ccc(OC/C(=C/F)CN)cc1 [WX118]
9.15

Identify measured pIC50 corresponding to NC/C(=C\F)COc1ccc(-c2nc(CC3CCCC3)n[nH]2)cc1 [WX103]
9.70

Identify measured pIC50 corresponding to NC/C(=C\F)COc1ccc(-c2nc(C(F)(F)F)n[nH]2)cc1 [WX036]
8.34

Identify measured pIC50 corresponding to NC/C(=C\F)COc1ccc(-c2nc(C(F)F)n[nH]2)cc1 [WX088]
9.40

----------
- Target of assay: CYP3A4 (Homo sapiens (Human), UniProt P08684)
- Sequence (P08684 whole entry): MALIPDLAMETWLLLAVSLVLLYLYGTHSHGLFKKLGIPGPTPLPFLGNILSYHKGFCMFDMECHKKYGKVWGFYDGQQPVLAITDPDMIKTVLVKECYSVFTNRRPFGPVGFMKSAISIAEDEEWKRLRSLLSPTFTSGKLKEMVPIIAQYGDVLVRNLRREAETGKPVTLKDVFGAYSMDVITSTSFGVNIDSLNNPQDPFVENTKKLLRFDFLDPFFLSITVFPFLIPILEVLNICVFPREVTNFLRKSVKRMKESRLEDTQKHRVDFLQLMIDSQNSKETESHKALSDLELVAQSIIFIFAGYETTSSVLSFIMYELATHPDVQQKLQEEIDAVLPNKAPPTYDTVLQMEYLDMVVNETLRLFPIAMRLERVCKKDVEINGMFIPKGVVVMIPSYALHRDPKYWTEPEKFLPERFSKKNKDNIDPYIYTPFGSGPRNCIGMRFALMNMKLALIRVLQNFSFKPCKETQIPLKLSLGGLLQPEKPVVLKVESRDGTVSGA
pIC50: −log10 of the molar value.
Property measured: pIC50

Identify measured pIC50 corresponding to CC(C)(C)NC(=O)c1ccc(OC/C(=C/F)CN)cc1.Cl [PXS-4728A, reference compound]
< 4.30

----------
- Assay explanation: Compound pharmacokinetic evaluation in SD rats
- Type: in vivo
- Settings: male, Sprague-Dawley, rat, oral, plasma, read-out: Peak Time Tmax
Property measured: Tmax (h)
Respond numerically; units are h and should not be typed.

Identify measured Tmax corresponding to Cl.Cn1nc(-c2ccc(OC/C(=C/F)CN)cc2)nc1C(F)F [WX126]
1.5

----------
- Target of assay: VAP-1/SSAO (Homo sapiens (Human), UniProt Q16853)
- Assay explanation: VAP-1 cell activity assay (HUVEC or CHO cells transfected with VAP-1/pCDNA (3.1) plasmid, Amplex Red)
- Format: cell-based
- Settings: HUVEC or CHO cells transfected with VAP-1 plasmid; read-out: VAP-1/SSAO Cellular Inhibitory Activity IC50
Property measured: pIC50
For clarity, pIC50 is expressed as the negative log10 of concentration in mol/L.

Some compounds with recorded pIC50:
# Compound, Target of assay, Property measured, Meas value
measured = [
    ("NC/C(=C\\F)COc1ccc(-c2nc(CC(F)(F)F)n[nH]2)cc1 [WX101]", "VAP-1/SSAO (Homo sapiens (Human), UniProt Q16853)", "pIC50", 9.40),
    ("CCCc1n[nH]c(-c2ccc(OC/C(=C/F)CN)cc2)n1 [WX097]", "VAP-1/SSAO (Homo sapiens (Human), UniProt Q16853)", "pIC50", 9.52),
    ("CCn1nnc(-c2ccc(OC/C(=C/F)CN)cc2)n1 [WX014]", "VAP-1/SSAO (Homo sapiens (Human), UniProt Q16853)", "pIC50", 9.52),
    ("Cn1nc(C2(F)CC2)nc1-c1ccc(OC/C(=C/F)CN)cc1 [WX117]", "VAP-1/SSAO (Homo sapiens (Human), UniProt Q16853)", "pIC50", 9.05),
    ("Cn1nc(CC(F)(F)F)nc1-c1ccc(OC/C(=C/F)CN)cc1 [WX104]", "VAP-1/SSAO (Homo sapiens (Human), UniProt Q16853)", "pIC50", 9.15),
    ("NC/C(=C\\F)COc1ccc(-c2nc(C3(F)CC3)n[nH]2)cc1 [WX087]", "VAP-1/SSAO (Homo sapiens (Human), UniProt Q16853)", "pIC50", 9.10),
]

Identify measured pIC50 corresponding to CC(C)n1nc(C(F)F)nc1-c1ccc(OC/C(=C/F)CN)cc1 [WX109]
9.15

Identify measured pIC50 corresponding to Cl.Cn1nc(-c2ccc(OC/C(=C/F)CN)cc2)nc1C(F)F [WX126]
9.52

Identify measured pIC50 corresponding to Cn1nc(-c2ccc(OC/C(=C/F)CN)cc2Cl)nc1N1CCOCC1 [WX107]
8.82

Identify measured pIC50 corresponding to NC/C(=C\F)COc1ccc(-c2nc(C3CC3)n[nH]2)cc1 [WX034]
9.40

Identify measured pIC50 corresponding to NC/C(=C\F)COc1ccc(-c2nc(C3CC3)n(CC(F)(F)F)n2)cc1 [WX113]
9.05

Identify measured pIC50 corresponding to Cc1noc(-c2ccc(OC/C(=C/F)CN)cc2)n1.Cl [WX008]
9.52

----------
- Target of assay: VAP-1/SSAO (Homo sapiens (Human), UniProt Q16853)
- Assay explanation: Human VAP-1 enzyme activity assay (Amplex Red Monoamine Oxidase kit)
- Type: biochemical
- Settings: 10 nM VAP-1 enzyme, 30 min preincubation, benzylamine substrate; read-out: Human Recombinant VAP-1/SSAO Enzyme Inhibitory Activity IC50
Measured pIC50, listed per entry.
For clarity, pIC50 is expressed as the negative log10 of concentration in mol/L.

# Compound, Meas value
data = [
    ("CCn1nc(-c2ccc(OC/C(=C/F)CN)cc2)nc1C1(F)CC1", 9.00),
    ("NC/C(=C\\F)COc1ccc(-c2nc(C3CCC3)n[nH]2)cc1", 9.70),
    ("Cn1nc(C(C)(C)C)nc1-c1ccc(OC/C(=C/F)CN)cc1", 8.72),
    ("NC/C(=C\\F)COc1ccc(-c2nc(C3CCOCC3)n[nH]2)cc1", 9.52),
    ("NC/C(=C\\F)COc1ccc(-c2noc3ccccc23)cc1", 9.52),
]

The record that follows has no pIC50 shown yet.
Name the value of pIC50 reported for CCn1nnc(-c2ccc(OC/C(=C/F)CN)cc2)n1 when tested on VAP-1/SSAO (Homo sapiens (Human), UniProt Q16853).
9.10

----------
- Assay explanation: Compound pharmacokinetic evaluation in CD-1 mice
- Type: in vivo, CD-1 mouse
- Settings: male, mouse, oral, plasma, read-out: Concentration Integral AUC
Property measured: AUC (µM·h)
Respond numerically; units are µM·h and should not be typed.

Identify measured AUC corresponding to Cl.Cn1nc(-c2ccc(OC/C(=C/F)CN)cc2)nc1C(F)F
6.49

----------
- Target of assay: CYP2C19 (Homo sapiens (Human), UniProt P33261)
- Sequence (P33261 whole entry): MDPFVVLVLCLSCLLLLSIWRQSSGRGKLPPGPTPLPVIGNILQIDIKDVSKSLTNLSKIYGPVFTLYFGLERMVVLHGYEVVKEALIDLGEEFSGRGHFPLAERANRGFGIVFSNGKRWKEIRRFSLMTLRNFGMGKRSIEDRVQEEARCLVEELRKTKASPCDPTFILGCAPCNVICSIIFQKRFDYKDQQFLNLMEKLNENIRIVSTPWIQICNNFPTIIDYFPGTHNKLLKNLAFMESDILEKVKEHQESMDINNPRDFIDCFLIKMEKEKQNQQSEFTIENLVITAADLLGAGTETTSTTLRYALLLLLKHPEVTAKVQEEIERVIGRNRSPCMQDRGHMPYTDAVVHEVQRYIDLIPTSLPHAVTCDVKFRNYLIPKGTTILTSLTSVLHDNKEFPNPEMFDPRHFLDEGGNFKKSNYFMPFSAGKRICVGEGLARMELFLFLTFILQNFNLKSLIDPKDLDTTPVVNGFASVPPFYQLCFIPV
Property measured: pIC50
For clarity, pIC50 is expressed as the negative log10 of concentration in mol/L.

Name the value of pIC50 reported for CC(C)(C)NC(=O)c1ccc(OC/C(=C/F)CN)cc1.Cl [PXS-4728A, reference compound] when tested on CYP2C19 (Homo sapiens (Human), UniProt P33261).
4.12

----------
- Target of assay: CYP1A2 (Homo sapiens (Human))
- Sequence (P05177 whole entry): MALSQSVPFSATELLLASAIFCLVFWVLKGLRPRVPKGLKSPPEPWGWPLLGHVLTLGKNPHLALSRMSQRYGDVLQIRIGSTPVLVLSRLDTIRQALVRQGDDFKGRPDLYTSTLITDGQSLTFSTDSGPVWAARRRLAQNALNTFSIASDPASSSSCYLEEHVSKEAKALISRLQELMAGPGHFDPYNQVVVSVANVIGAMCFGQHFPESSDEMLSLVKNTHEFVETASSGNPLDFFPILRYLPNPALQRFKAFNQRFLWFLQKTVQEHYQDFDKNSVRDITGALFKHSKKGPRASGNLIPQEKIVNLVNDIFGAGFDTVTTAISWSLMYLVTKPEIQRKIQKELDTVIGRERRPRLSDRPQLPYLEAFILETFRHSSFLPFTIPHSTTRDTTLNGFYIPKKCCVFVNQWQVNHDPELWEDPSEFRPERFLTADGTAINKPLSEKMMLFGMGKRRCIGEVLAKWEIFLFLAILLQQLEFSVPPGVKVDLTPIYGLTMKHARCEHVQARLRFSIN
Measured pIC50, listed per entry.
For clarity, pIC50 is expressed as the negative log10 of concentration in mol/L.

# Molecule, Meas value
records = [
    ("Cl.Cn1nc(-c2ccc(OC/C(=C/F)CN)cc2)nc1C(F)F [WX126]", 5.30),
]

The record that follows has no pIC50 shown yet.
Name the value of pIC50 reported for CC(C)(C)NC(=O)c1ccc(OC/C(=C/F)CN)cc1.Cl [PXS-4728A, reference compound] when tested on CYP1A2 (Homo sapiens (Human)).
5.05

----------
- Target of assay: VAP-1/SSAO (Homo sapiens (Human), UniProt Q16853)
- Assay explanation: Human VAP-1 enzyme activity assay (Amplex Red Monoamine Oxidase kit)
- Format: biochemical
- Settings: 10 nM VAP-1 enzyme, 30 min preincubation, benzylamine substrate; read-out: Human Recombinant VAP-1/SSAO Enzyme Inhibitory Activity IC50
Strictly below 0.8 nM in IC50: yes (1). Otherwise: no (0).

For orientation, consider the following solved cases.
# Smiles repr, Classification
records = [
    ("Cn1ncc(-c2ccc(OC/C(=C/F)CN)cc2)n1", "yes (1)"),
    ("NC/C(=C\\F)COc1ccc(-c2nccc(N3CCOCC3)n2)cc1", "no (0)"),
]

Does the reported IC50 of CC1(C)CN=C(c2ccc(OC/C(=C/F)CN)cc2)N1 stay below 0.8 nM?
no (0)

Does the reported IC50 of NC/C(=C\F)COc1ccc(-c2nc(C(N)=O)n[nH]2)cc1 stay below 0.8 nM?
yes (1)

Does the reported IC50 of Cc1n[nH]c(-c2ccc(OC/C(=C/F)CN)cc2)n1 stay below 0.8 nM?
no (0)

Does the reported IC50 of NC/C(=C\F)COc1ccc(-c2nc(C3CC3)n(CC(F)(F)F)n2)cc1 stay below 0.8 nM?
no (0)

Does the reported IC50 of CC(C)n1nc(-c2ccc(OCC(=CF)CN)cc2)nc1C1(F)CC1 stay below 0.8 nM?
no (0)

Does the reported IC50 of CC(C)n1nc(C(F)F)nc1-c1ccc(OC/C(=C/F)CN)cc1 stay below 0.8 nM?
no (0)
